Assay: ALL-RET pharmacokinetic analysis
Format: in vivo, human
Conditions: human, plasma, oral, 600 mg, Tmax, Day 15, 600 mg BID, N=3; median [min–max]
experimental endpoint: Tmax
A complete answer gives the number followed by the unit.

# Tmax (molecule: CCc1cc2c(cc1N1CCC(N3CCOCC3)CC1)C(C)(C)c1[nH]c3cc(C#N)ccc3c1C2=O [alectinib] ) is 5.77 h

###

Experiment: ALL-RET pharmacokinetic analysis
Type: in vivo, human
Details: human, plasma, oral, 450 mg
experimental endpoint: AUC (ng·h/mL)
Entry rule: numbers only, all in ng·h/mL.

Lab note: measured AUC of CCc1cc2c(cc1N1CCC(N3CCOCC3)CC1)C(C)(C)c1[nH]c3cc(C#N)ccc3c1C2=O was 4820

###

Assay: ALL-RET pharmacokinetic analysis
Type: in vivo, human
Settings: human, plasma, oral, 450 mg, Cmin (plasma concentration at 10 h after administration), Day 15, 450 mg BID, N=5; mean ± SD [min–max]
experimental endpoint: concentration at 10 h (ng/mL)
Numbers only; they are read as ng/mL.

So for CCc1cc2c(cc1N1CCC(N3CCOCC3)CC1)C(C)(C)c1[nH]c3cc(C#N)ccc3c1C2=O , the logged concentration at 10 h turned out to be 483

###

Assay: ALL-RET pharmacokinetic analysis
Format: in vivo, human
Conditions: human, plasma, oral, 600 mg, Tmax, Day 1, 600 mg, N=6; median [min–max]
experimental endpoint: Tmax (h)
Quick note: give the figure in h, leave out the unit.

Documented Tmax of CCc1cc2c(cc1N1CCC(N3CCOCC3)CC1)C(C)(C)c1[nH]c3cc(C#N)ccc3c1C2=O [alectinib] : 7.01

###

Assay: ALL-RET pharmacokinetic analysis
Format: in vivo, human
Details: human, plasma, oral, 600 mg
experimental endpoint: Cmax

// recorded Cmax for CCc1cc2c(cc1N1CCC(N3CCOCC3)CC1)C(C)(C)c1[nH]c3cc(C#N)ccc3c1C2=O [alectinib] : 1050 ng/mL

###

Experiment: ALL-RET pharmacokinetic analysis
Format: in vivo, human
Conditions: human, plasma, oral, 600 mg, Cmin (plasma concentration at 10 h after administration), Day 1, 600 mg, N=6; mean ± SD [min–max]
experimental endpoint: concentration at 10 h (ng/mL)
Write the value in ng/mL as a bare number.

concentration at 10 h in this record for CCc1cc2c(cc1N1CCC(N3CCOCC3)CC1)C(C)(C)c1[nH]c3cc(C#N)ccc3c1C2=O : 278

###

Experiment: ALL-RET pharmacokinetic analysis
Type: in vivo, human
Details: human, plasma, oral, 450 mg, Tmax, Day 1, 450 mg, N=6; median [min–max]
experimental endpoint: Tmax (h)
Form entry: value (h) — number only.

The reported Tmax of the compound CCc1cc2c(cc1N1CCC(N3CCOCC3)CC1)C(C)(C)c1[nH]c3cc(C#N)ccc3c1C2=O was 5.91
